Below are AC50 values measured for Histamine H3 receptor (Homo sapiens, UniProt Q9Y5N1).

C=CCC1(C(C)CC)C(=O)NC(=O)NC1=O (stereo unspecified) ... > 10 µM
CN1C(=O)C(O)N=C(c2ccccc2Cl)c2cc(Cl)ccc21 (stereo unspecified) ... > 30 µM
Brc1c(NC2=NCCN2)ccc2nccnc12 ... > 30 µM
C[C@]12CCC(=O)C=C1CC[C@@H]1[C@@H]2[C@@H](O)C[C@@]2(C)[C@H]1CC[C@]2(O)C(=O)CO [HYDROCORTISONE] ... > 10 µM
CC(=O)O[C@H]1CC[C@@]2(C)C(=CC[C@@H]3[C@@H]2CC[C@]2(C)C(c4cccnc4)=CC[C@@H]32)C1 [ABIRATERONE ACETATE] ... > 30 µM
CO/N=C(\C(=O)N[C@@H]1C(=O)N2C(C(=O)O)=C(CSc3nnnn3C)CS[C@H]12)c1csc(N)n1 ... > 30 µM
Cc1ccc(-n2nccn2)c(C(=O)N2CCN(c3nc4cc(Cl)ccc4o3)CC[C@H]2C)c1 ... > 30 µM
CN1[C@@H]2CC[C@H]1C[C@@H](OC(c1ccccc1)c1ccccc1)C2 ... > 30 µM

AC50 for CN1C(=O)C(O)N=C(c2ccccc2)c2cc(Cl)ccc21 (stereo unspecified) ?
> 10 µM

Now this one: CCC(C(=O)O)c1ccc(N2Cc3ccccc3C2=O)cc1 (stereo unspecified)
> 30 µM

Now this one: CCCN1C[C@H](CSC)C[C@@H]2c3cccc4[nH]cc(c34)C[C@H]21 [PERGOLIDE]
> 30 µM

Now this one: "CC[C@H]1CN2CCc3cc(OC)c(OC)cc3[C@@H]2C[C@@H]1C[C@H]1NCCc2cc(OC)c(OC)cc21"
> 30 µM

Now this one: "CC[C@H]1OC(=O)[C@H](C)[C@@H](O[C@H]2C[C@@](C)(OC)[C@@H](O)[C@H](C)O2)[C@H](C)[C@@H](O[C@@H]2O[C@H](C)C[C@H](N(C)C)[C@H]2O)[C@](C)(O)C[C@@H](C)CN(C)[C@H](C)[C@@H](O)[C@]1(C)O"
> 10 µM

Now this one: "CN1CCC(=C2c3ccccc3CCc3sccc32)CC1"
> 10 µM

Now this one: "CC(=O)Nc1ccc(O)cc1"
> 30 µM

Now this one: "CC/C(=C(\c1ccccc1)c1ccc(OCCN(C)C)cc1)c1ccccc1"
> 30 µM

====

Below are AC50 values measured for Neuronal acetylcholine receptor subunit alpha-4 (Homo sapiens, UniProt P43681).

CN1C(=O)CCS(=O)(=O)C1c1ccc(Cl)cc1 (stereo not given) ... > 10 µM

AC50 for "CC(C)(C)c1cc(C(C)(C)C)c(NC(=O)c2c[nH]c3ccccc3c2=O)cc1O" ?
> 10 µM

Now this one: "O=C1Nc2ccc(Cl)cc2[C@@](C#CC2CC2)(C(F)(F)F)O1"
> 30 µM

Now this one: "C[C@]12CC[C@H]3[C@@H](CCC4=CC(=O)CC[C@@]43C)[C@@H]1CC[C@@H]2O"
> 10 µM

Now this one: COc1ccccc1N1CCN(CC(O)COc2cccc3ccccc23)CC1 (stereo not given)
> 10 µM

Now this one: "CC(C)C[C@H]1C(=O)N2CCC[C@H]2[C@]2(O)O[C@](NC(=O)[C@@H]3C=C4c5cccc6[nH]c(Br)c(c56)C[C@H]4N(C)C3)(C(C)C)C(=O)N12"
> 30 µM

Now this one: "C[C@@H](O)[C@H]1C(=O)N2C(C(=O)O)=C(S[C@@H]3CN[C@H](C(=O)N(C)C)C3)[C@H](C)[C@H]12"
> 300 µM

Now this one: "CC(C)(C)C(=O)Oc1ccc(S(=O)(=O)Nc2ccccc2C(=O)NCC(=O)O)cc1"
> 30 µM

Now this one: COc1ccc(CCN(C)CCCC(C#N)(c2cc(OC)c(OC)c(OC)c2)C(C)C)cc1OC (stereo not given)
> 30 µM

Now this one: "Clc1ccc(CCCOCCCN2CCCCC2)cc1"
> 30 µM

====

Below are AC50 values measured for Sodium-dependent noradrenaline transporter (Homo sapiens, UniProt P23975).

CCOC(=O)OC(C)OC1=C(C(=O)Nc2ccccn2)N(C)S(=O)(=O)c2ccccc21 (centres undefined) ... > 30 µM
NS(=O)(=O)Cc1noc2ccccc12 [ZONISAMIDE] ... > 10 µM
C=CCc1ccccc1OCC(O)CNC(C)C (centres undefined) ... 30 µM
O=C1Nc2ccc(Cl)cc2[C@@](C#CC2CC2)(C(F)(F)F)O1 ... 15 µM
CN1CCN(CC/C=C2/c3ccccc3Sc3ccc(S(=O)(=O)N(C)C)cc32)CC1 ... > 10 µM

AC50 for "COC(=O)[C@H]1[C@H]2C[C@@H]3c4[nH]c5cc(OC)ccc5c4CCN3C[C@H]2C[C@@H](OC(=O)/C=C/c2cc(OC)c(OC)c(OC)c2)[C@@H]1OC" ?
> 30 µM

Now this one: "CC(=O)O[C@H]1C[C@@H]2CC[C@@H]3[C@H](CC[C@@]4(C)[C@H]3C[C@H]([N+]3(C)CCCCC3)[C@@H]4OC(C)=O)[C@@]2(C)C[C@@H]1N1CCCCC1"
> 30 µM

Now this one: "Cc1nnc2n1-c1ccc(Cl)cc1C(c1ccccc1Cl)=NC2"
> 30 µM

Now this one: "Clc1ccc2nsnc2c1NC1=NCCN1"
> 10 µM

====

Below are AC50 values measured for Sodium-dependent noradrenaline transporter (Homo sapiens).

Study these solved cases before continuing.
C[N+](C)(C)CCO [CHOLINE] ... > 30 µM
C=CCc1ccccc1OCC(O)CNC(C)C (configuration not stated) [ALPRENOLOL] ... > 0.3 µM

AC50 for CC[N+]1(C)[C@@H]2CC(OC(=O)[C@H](CO)c3ccccc3)C[C@H]1[C@@H]1O[C@@H]12 (some centres not stated) [OXITROPIUM] ?
> 30 µM

====

# assayed_system: 5-hydroxytryptamine receptor 1A (Homo sapiens); further: assay procedure not described here
# Sequence (P08908 whole entry): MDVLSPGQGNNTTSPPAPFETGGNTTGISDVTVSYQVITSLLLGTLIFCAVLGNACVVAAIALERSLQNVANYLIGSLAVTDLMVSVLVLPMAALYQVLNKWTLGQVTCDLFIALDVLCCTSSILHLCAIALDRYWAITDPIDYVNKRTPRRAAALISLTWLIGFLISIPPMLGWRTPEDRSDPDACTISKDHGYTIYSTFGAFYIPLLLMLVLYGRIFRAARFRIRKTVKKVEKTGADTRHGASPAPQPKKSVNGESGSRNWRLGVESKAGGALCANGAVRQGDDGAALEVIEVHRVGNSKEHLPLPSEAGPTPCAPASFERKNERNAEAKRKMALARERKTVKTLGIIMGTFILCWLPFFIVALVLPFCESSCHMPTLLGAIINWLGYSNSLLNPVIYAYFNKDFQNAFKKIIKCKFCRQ
# Assay type: functional, cell-based
Here the recorded AC50 is given for each entry.

Study these solved cases before continuing.
Clc1ccc(CCCOCCCN2CCCCC2)cc1 ... > 30 µM
Cc1nc([N+](=O)[O-])cn1-c1ccc([N+](=O)[O-])cc1 ... > 30 µM
Fc1ccc(C(c2ccccc2)(c2ccccc2F)n2ccnc2)cc1 (stereo unspecified) ... > 30 µM

AC50 for Cc1cc(O)c(C(=O)N[C@@H](C(=O)N[C@@H]2C(=O)N3C(C(=O)O)=C(CSc4nnnn4C)CS[C@H]23)c2ccc(O)cc2)cn1 [CEFPIRAMIDE] ?
> 30 µM

Now this one: "c1ccc([C@H]2CN3CCSC3=N2)cc1"
> 30 µM

Now this one: CCOc1ccccc1OCC1CNCCO1 (stereo unspecified)
> 10 µM

====

Below are AC50 values measured for Neuronal acetylcholine receptor subunit alpha-4 (Homo sapiens, UniProt P43681).

Study these solved cases before continuing.
CC(C)Cn1cnc2c(N)nc3ccccc3c21 ... > 10 µM
COc1ccc(C(=O)Nc2ccccc2CCC2CCCCN2C)cc1 (stereo not drawn) [ENCAINIDE] ... > 10 µM

AC50 for CCCC1O[C@@H]2C[C@H]3[C@@H]4CCC5=CC(=O)C=C[C@]5(C)[C@H]4[C@@H](O)C[C@]3(C)[C@]2(C(=O)CO)O1 (stereo partly drawn) [BUDESONIDE] ?
> 10 µM

Now this one: "CC(C)OC(=O)CCC/C=C\C[C@@H]1[C@@H](CC[C@@H](O)CCc2ccccc2)[C@H](O)C[C@@H]1O"
> 30 µM

Now this one: "Nc1nc(NC2CC2)c2ncn([C@H]3C=C[C@@H](CO)C3)c2n1"
> 30 µM

Now this one: "Clc1ccccc1C(c1ccccc1)(c1ccccc1)n1ccnc1"
> 10 µM

Now this one: "COc1cc2c(N)nc(N3CCN(C(=O)OCC(C)(C)O)CC3)nc2c(OC)c1OC"
> 30 µM

Now this one: "O=C(O)C[C@H](O)C[C@H](O)/C=C/c1c(C2CC2)nc2ccccc2c1-c1ccc(F)cc1"
> 30 µM

Now this one: Cn1nnc2c(C(N)=O)ncn2c1=O [TEMOZOLOMIDE]
> 30 µM

Now this one: "CO/N=C(\C(=O)N[C@@H]1C(=O)N2C(C(=O)O)=C(CSc3nnnn3C)CS[C@H]12)c1csc(N)n1"
> 30 µM

Now this one: COc1cc2nc(N(C)CCCNC(=O)C3CCCO3)nc(N)c2cc1OC (stereo not drawn)
> 30 µM

Now this one: "C[C@H]1CNCCc2ccc(Cl)cc21"
> 30 µM

Now this one: CC(Oc1c(Cl)cccc1Cl)C1=NCCN1 (stereo not drawn)
> 30 µM

====

Below are AC50 values measured for Adenosine receptor A1 (Homo sapiens).

Study these solved cases before continuing.
CCCN1C[C@H](CSC)C[C@@H]2c3cccc4[nH]cc(c34)C[C@H]21 [PERGOLIDE] ... > 30 µM
C#C[C@]1(O)CC[C@H]2[C@@H]3CCc4cc(OC5CCCC5)ccc4[C@H]3CC[C@@]21C [QUINESTROL] ... > 10 µM
C=CCC1(CC(C)C)C(=O)NC(=O)NC1=O [BUTALBITAL] ... > 10 µM

AC50 for Cc1ccc(S(=O)(=O)NC(=O)NN2CC3CCCC3C2)cc1 (configuration not stated) [GLICLAZIDE] ?
> 10 µM

Now this one: CCC1(CC)C(=O)NCC(C)C1=O (configuration not stated) [METHYPRYLON]
> 30 µM

Now this one: CCOC(=O)OC(C)OC1=C(C(=O)Nc2ccccn2)N(C)S(=O)(=O)c2ccccc21 (configuration not stated) [AMPIROXICAM]
> 30 µM

Now this one: CC(=O)NCCCS(=O)(=O)O [ACAMPROSATE]
> 30 µM
